Hello, the source for this data is patent US7846959B2, in case you need it.

Molecular target: B-Raf (Homo sapiens, UniProt P15056)
Sequence (P15056 whole entry): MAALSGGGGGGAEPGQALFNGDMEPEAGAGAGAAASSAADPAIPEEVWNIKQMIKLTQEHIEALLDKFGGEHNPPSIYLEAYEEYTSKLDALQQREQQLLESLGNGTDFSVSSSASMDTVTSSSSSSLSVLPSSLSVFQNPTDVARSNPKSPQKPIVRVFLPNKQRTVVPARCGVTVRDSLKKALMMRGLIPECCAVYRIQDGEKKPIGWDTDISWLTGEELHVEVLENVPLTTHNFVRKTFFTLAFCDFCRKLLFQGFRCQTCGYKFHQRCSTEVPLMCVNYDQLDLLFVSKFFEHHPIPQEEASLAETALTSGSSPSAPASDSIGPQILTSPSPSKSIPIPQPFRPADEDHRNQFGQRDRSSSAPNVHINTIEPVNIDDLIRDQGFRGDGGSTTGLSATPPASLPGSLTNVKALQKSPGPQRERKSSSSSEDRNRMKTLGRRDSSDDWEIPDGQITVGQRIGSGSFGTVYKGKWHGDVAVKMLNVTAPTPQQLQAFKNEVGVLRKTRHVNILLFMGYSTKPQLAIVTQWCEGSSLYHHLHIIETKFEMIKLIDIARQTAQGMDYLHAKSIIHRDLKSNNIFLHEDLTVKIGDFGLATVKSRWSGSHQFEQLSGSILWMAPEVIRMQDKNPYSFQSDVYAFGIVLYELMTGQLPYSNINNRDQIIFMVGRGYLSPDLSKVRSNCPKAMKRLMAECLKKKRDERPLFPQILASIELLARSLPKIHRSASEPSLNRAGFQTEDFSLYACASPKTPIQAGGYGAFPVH
Test: Luciferase-coupled chemiluminescence kinase assay (ATP consumption), B-Raf
Format: biochemical
Settings: read-out: bRaf IC50
measured parameter: IC50

Look over these answered cases.
O=C1c2ccccc2C(O)(c2ccc3[nH]c(NC(=O)C(O)(C(F)(F)F)C(F)(F)F)nc3c2)N1Cc1ccccc1 (stereo not shown)    1000 to 10000 nM
COC(=O)Nc1nc2cc(C3(O)c4ccccc4C(=O)N3CCc3ccccc3)ccc2[nH]1 (stereo not shown)    1000 to 10000 nM
COC(=O)Nc1nc2cc(C3(O)c4ccccc4C(=O)N3Cc3ccccn3)ccc2[nH]1 (stereo not shown)    100 to 1000 nM
Nc1cc(Cl)cc(N2C(=O)c3ccccc3C2(O)c2ccc3c(c2)NC(=O)CO3)c1 (stereo not shown)    < 100 nM
COC(=O)Nc1nc2cc(C3(O)c4ccccc4C(=O)N3c3ccc(Cl)c(Cl)c3)ccc2[nH]1 (stereo not shown)    < 100 nM

If you can, please state the reported IC50 value of COC(=O)Nc1nc2cc(C3(O)c4ccccc4C(=O)N3C3CCc4ccccc43)ccc2[nH]1 (stereo not shown) . < 100 nM

If you can, please state the reported IC50 value of COC(=O)Nc1nc2cc(C3(O)c4ccccc4C(=O)N3c3ccc(OC)cc3)ccc2[nH]1 (stereo not shown) . 1000 to 10000 nM

If you can, please state the reported IC50 value of Cc1ccccc1N1C(=O)c2ccccc2C1(O)c1ccc2c(c1)NC(=O)CO2 (stereo not shown) . 1000 to 10000 nM

If you can, please state the reported IC50 value of COC(=O)Nc1nc2ccc(C3(O)c4ccccc4C(=O)N3c3cc(N)cc(Cl)c3)cc2[nH]1 (stereo not shown) . < 100 nM

If you can, please state the reported IC50 value of O=C(Nc1nc2cc(C3(O)c4ccccc4C(=O)N3Cc3ccccc3)ccc2[nH]1)N1CCOCC1 (stereo not shown) . 1000 to 10000 nM

If you can, please state the reported IC50 value of COC(=O)Nc1nc2cc(C3(O)c4ccccc4C(=O)N3c3cccc(C)c3C)ccc2[nH]1 (stereo not shown) . < 100 nM

If you can, please state the reported IC50 value of COC(=O)Nc1nc2cc(C3(O)c4ccccc4C(=O)N3c3cccc(F)c3)ccc2[nH]1 (stereo not shown) . < 100 nM
